assay: Cytotoxicity against mouse RAW264.7 cells assessed as cell viability at 5 uM after 48 hrs by MTT assay relative to control; format: cell-based; settings: read-out: Activity
Experimental readout: viability at 48 h, 5 µM (%)

INSERT INTO results (structure_string, experimental_readout, measurement) VALUES
  ('O=C(Nc1ccccc1)c1cc([N+](=O)[O-])ccc1Cl', 'viability at 48 h, 5 µM', 101);

====

Activity values, listed per item
test system: RAW264.7; experiment: Antiinflammatory activity in mouse RAW264.7 cells assessed as inhibition of LPS-induced IL-6 release at 10 uM treated 2 hrs before LPS challenge measured after 24 hrs by ELISA (reference value: 45.1 +/- 5.6 pg/ml); assay type: functional
Experimental readout: Activity (pg/mL)

INSERT INTO measurements (compound, experimental_readout, measurement) VALUES
  ('CN(CCOc1ccc(CC2SC(=O)NC2=O)cc1)c1ccccn1 (centres undefined)', 'Activity', 8388.6),
  ('COc1ccc2c(c1)c(CC(=O)O)c(C)n2C(=O)c1ccc(Cl)cc1', 'Activity', 7645.9),
  ('CCc1ccc(CCOc2ccc(/C=C3\OC(=O)C(Br)=C3Br)cc2OC)nc1', 'Activity', 6360),
  ('CCOc1cc(/C=C2\OC(=O)C(Br)=C2Br)ccc1OCCc1ccc(CC)cn1', 'Activity', 2360.2);

====

Reported Activity values for a set of compounds
system: RAW264.7; assay: Antiinflammatory activity in mouse RAW264.7 cells assessed as inhibition of LPS-induced TNF-alpha release at 10 uM treated 2 hrs before LPS challenge measured after 6 hrs by ELISA (reference value: 5.9 +/- 0.5 pg/ml); type: functional
Experimental readout: Activity (pg/mL)

INSERT INTO measurements (compound, test_target, measurement) VALUES
  ('CN(CCOc1ccc(CC2SC(=O)NC2=O)cc1)c1ccccn1 (centres undefined)', 'RAW264.7', 416.9),
  ('CCOc1cc(/C=C2\OC(=O)C(Br)=C2Br)ccc1OCCc1ccc(CC)cn1', 'RAW264.7', 323.8),
  ('CCc1ccc(CCOc2ccc(/C=C3\OC(=O)C(Br)=C3Br)cc2OC)nc1', 'RAW264.7', 347.1),
  ('COc1ccc2c(c1)c(CC(=O)O)c(C)n2C(=O)c1ccc(Cl)cc1', 'RAW264.7', 366.5);

====

test: Cytotoxicity against mouse RAW264.7 cells assessed as cell viability at 10 uM after 48 hrs by MTT assay relative to control; format: cell-based; details: read-out: Activity
Experimental readout: viability at 48 h, 10 µM (%)

INSERT INTO assay_data (molecule, uom, measurement) VALUES
  ('COc1ccc2c(c1)c(CC(=O)O)c(C)n2C(=O)c1ccc(Cl)cc1', '%', 101),
  ('CCc1ccc(CCOc2ccc(/C=C3\OC(=O)C(Br)=C3Br)cc2OC)nc1', '%', 98.1),
  ('CN(CCOc1ccc(CC2SC(=O)NC2=O)cc1)c1ccccn1 (centres undefined)', '%', 99.7),
  ('CCOc1cc(/C=C2\OC(=O)C(Br)=C2Br)ccc1OCCc1ccc(CC)cn1', '%', 93.1);

The measured values listed here are drawn from ChEMBL document CHEMBL3102723.
